Cited source for all entries: PubChem BioAssay

assay: endothelial E-selectin expression blockers – imaging, HUVEC, immunofluorescence, MLSMR starter and 10KST1 sets, primary screen (AID 487); details: HUVEC TNFalpha-induced E-selectin immunofluorescence imaging, at 2 µM; measured here: cell number, toxicity;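 also: 100% = median nuclei count of all wells on the same plate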
A collection of compounds and their measured nuclei count

| compound | nuclei count / % |
| --- | --- |
| O=S(=O)(c1ccc(Oc2ccc(-c3nnco3)cc2)nc1)N1CCC(Cc2ccccc2)CC1 | 108 |
| O=C(CSc1nnnn1-c1ccc2c(c1)OCO2)NCc1cccs1 | 98.8 |
| O=C(O)c1ccc(COc2c(F)c(F)cc(F)c2F)cc1 | 107 |
| CC(C)C(c1nnnn1CC1CCCO1)N1CCN(Cc2ccc3c(c2)OCO3)CC1 (stereo not drawn) | 110 |
| CC(C)N(Cc1nc(-c2ccc(Cl)cc2)no1)C(=O)CN(C)S(=O)(=O)c1ccc(Cl)cc1 | 106 |
| C=CCN=C1SCC(=O)N1S(=O)(=O)c1ccc(C)cc1 | 124 |
| CSCCC(N=CC1=C(O)CC(C)(C)CC1=O)C(=O)O (stereo not drawn) | 118 |
| C/C=C/COC(=O)c1[nH]c2c(c1C)C(=O)CC(c1ccco1)C2 (stereo not drawn) | 97 |
| CC(C)Cc1nc2oc3c(N4CCN(CCO)CC4)ncnc3c2c2c1CCCC2 | 119 |
| CCn1cc(C(=O)N=c2sc3ccccc3n2C)c(=O)c2ccc(C)nc21 | 97.3 |
| O=C(C1CCCN(S(=O)(=O)c2cccc3nonc23)C1)N1CCC(Cc2ccccc2)CC1 (stereo not drawn) | 59.6 |
| CCOc1cc(/C=N/n2cnnc2)cc(Br)c1O | 124 |
| CC(=O)NC(CCS(C)(=O)=O)C(=O)Nc1cc(C)on1 (stereo not drawn) | 114 |
| CCOCCCNC(=O)CS(=O)(=O)Cc1nc(-c2cccc(OC)c2)oc1C | 97.9 |
| Cn1cnc(S(=O)(=O)Nc2ccc(C(F)(F)F)cc2)c1 | 103 |
| CCOc1ccccc1CNC(=O)CCN1C(=O)COc2ccccc21 | 94.5 |
| O=C(NCC1COc2ccccc2O1)C1CCCN(S(=O)(=O)c2cnc[nH]2)C1 (stereo not drawn) | 124 |
| Cc1nn(-c2ccccc2)c(Cl)c1C(=O)NCC(=O)O | 117 |
| CN(C)CCCOC(=O)CCc1ccccc1 | 111 |
| CCc1ccc(N2CC34C=CC(O3)C(C(=O)OC)C4C2=O)cc1 (stereo not drawn) | 101 |
| CCOc1cc(C2CC(=O)N3CN(C4CCCCC4)CSC3=C2C#N)ccc1O (stereo not drawn) | 110 |
| CCOC(=O)c1ccc(NS(=O)(=O)c2cccc3nsnc23)cc1 | 104 |
| Cc1cc(O)c(-c2cc(C(=O)Nc3ccc(S(=O)(=O)N4CCOCC4)cc3)[nH]n2)cc1C | 153 |
| Cc1cccc(NC(=O)CC(C)(C)C)c1 | 99.8 |
| Cc1cc(Nc2ccc(N3CCC(C)CC3)cc2)n2ncnc2n1 | 115 |
| Cc1cc(C)cc(N(CC(=O)NC2CCC(C)CC2)S(=O)(=O)c2c(C)noc2C)c1 (stereo not drawn) | 115 |
| S=c1[nH]nc(-c2ccco2)n1-c1cccc2ccccc12 | 104 |
| CCN(c1cccc(C(F)(F)F)c1)S(=O)(=O)c1ccc2c(c1)CCN2C(=O)C1CC1 | 104 |
| O=S(=O)(c1ccc2ccccc2c1)N1CCCCC1 | 104 |
| COc1ccc(CCN2CC(O)=C(c3nc4ccccc4c(=O)[nH]3)C2=N)cc1OC | 98.6 |
| CC(C)CC1NC(=O)N(CC(=O)N2CCN(S(=O)(=O)c3ccc(Cl)cc3)CC2)C1=O (stereo not drawn) | 76.3 |
| CCOC(=O)C1=C(C)NC2=C(C(=O)CC(C)(C)C2)C1c1ccc(N(C)C)cc1 (stereo not drawn) | 116 |
| Cc1nc2c(-c3ccccc3)c(C)nn2c(C)c1CCC(=O)O | 103 |
| CCN(CC)S(=O)(=O)c1ccc(NC(=O)CN(c2cccc(F)c2)S(C)(=O)=O)cc1 | 98.6 |
| CN(C(=O)c1ccccn1)c1nnc(-c2cccnc2)s1 | 106 |
| Cc1ccc(C)c(NC(=O)CSc2nnc(-c3ccccc3)o2)c1 | 104 |
| CCOC(=O)C1CCN(c2cc(C)nc3cc(-c4cccc(F)c4)nn23)CC1 | 99.1 |
| COc1ccccc1NC(=O)CSc1nnc(-c2ccncc2)n1CC1CCCO1 (stereo not drawn) | 100 |
| N#Cc1cc2ccc(N3CCOCC3)cc2cc1C#N | 103 |
| CCOC(=O)c1c(C)[nH]c(C(=O)COC(=O)C2CC2C)c1C (stereo not drawn) | 125 |
| COc1ccc(N(CC(=O)Nc2ccc(F)c(Cl)c2)S(=O)(=O)c2c(C)noc2C)cc1 | 104 |
| COCCOC(=O)c1c(C)oc2ccc(NS(=O)(=O)c3ccc(F)cc3)cc12 | 93 |
| O=C(c1ccc2nc(N3CCOCC3)sc2c1)N1CCCC1 | 116 |
